# assay_details: Selectivity index, ratio of IC50 for cytotoxicity against African green monkey Vero cells to IC50 for chloroquine-sensitive Plasmodium falciparum D6
# Format: toxicity, cell-based
# run_conditions: read-out: Ratio IC50
reported_property: selectivity ratio

Which measured selectivity ratio value corresponds to Cc1cc(N2CCOCC2)nc(N(CCNc2ccnc3cc(Cl)ccc23)Cc2ccccn2)n1 ?
> 31.2

Which measured selectivity ratio value corresponds to Cc1cc(N(CCCNc2ccnc3cc(Cl)ccc23)Cc2cccs2)nc(Cl)n1 ?
> 42.2

Which measured selectivity ratio value corresponds to CCN1CCN(c2nc(C)cc(N(CCCNc3ccnc4cc(Cl)ccc34)Cc3cccs3)n2)CC1 ?
> 24.8

Hello, the source for this data is ChEMBL document CHEMBL4325903, in case you need it.
